Entries with reported IC50 on EGFR (Homo sapiens)
Sequence (P00533 25-1210): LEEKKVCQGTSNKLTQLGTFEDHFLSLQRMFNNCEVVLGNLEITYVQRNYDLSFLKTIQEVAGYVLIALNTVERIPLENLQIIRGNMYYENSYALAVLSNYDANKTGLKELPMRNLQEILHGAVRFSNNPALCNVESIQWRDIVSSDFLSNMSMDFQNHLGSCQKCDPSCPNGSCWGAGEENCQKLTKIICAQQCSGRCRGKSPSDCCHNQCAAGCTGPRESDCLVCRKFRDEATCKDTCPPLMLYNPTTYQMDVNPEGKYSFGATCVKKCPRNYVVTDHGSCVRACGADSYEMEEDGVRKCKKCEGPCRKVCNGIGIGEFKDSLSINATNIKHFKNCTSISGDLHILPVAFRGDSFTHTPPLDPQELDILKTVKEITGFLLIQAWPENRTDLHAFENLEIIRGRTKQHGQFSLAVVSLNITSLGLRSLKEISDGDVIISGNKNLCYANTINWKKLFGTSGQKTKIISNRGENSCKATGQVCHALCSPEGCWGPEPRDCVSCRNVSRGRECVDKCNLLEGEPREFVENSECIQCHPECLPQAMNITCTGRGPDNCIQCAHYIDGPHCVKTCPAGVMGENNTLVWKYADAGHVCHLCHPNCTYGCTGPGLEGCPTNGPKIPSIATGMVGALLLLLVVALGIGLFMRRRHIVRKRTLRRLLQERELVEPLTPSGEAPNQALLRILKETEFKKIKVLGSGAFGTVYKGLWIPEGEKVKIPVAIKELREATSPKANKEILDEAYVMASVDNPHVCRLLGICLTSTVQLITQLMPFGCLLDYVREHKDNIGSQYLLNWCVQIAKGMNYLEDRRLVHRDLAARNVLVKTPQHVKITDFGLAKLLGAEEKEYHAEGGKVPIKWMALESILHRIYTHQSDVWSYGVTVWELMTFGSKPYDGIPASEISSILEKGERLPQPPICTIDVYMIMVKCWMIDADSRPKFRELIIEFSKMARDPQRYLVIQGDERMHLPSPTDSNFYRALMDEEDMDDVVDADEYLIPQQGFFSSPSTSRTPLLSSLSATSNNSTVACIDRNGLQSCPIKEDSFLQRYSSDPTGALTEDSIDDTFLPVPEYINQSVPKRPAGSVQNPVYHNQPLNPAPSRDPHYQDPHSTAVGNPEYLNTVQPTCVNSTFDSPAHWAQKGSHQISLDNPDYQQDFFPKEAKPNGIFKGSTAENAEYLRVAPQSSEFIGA
READOUT_LABEL: IC50 (nM)

[[record]]
compound = "Cc1c(C(=O)[C@H]2[C@H](c3cc4ccccc4s3)C3CCCN3[C@]23C(=O)Nc2cc(Cl)ccc23)nnn1-c1c(Cl)cc(Cl)cc1Cl (stereo partly drawn) [4b]"
value_observed = 85.3


[P] Cc1c(C(=O)[C@H]2[C@H](c3cc4ccccc4s3)C3CCCN3[C@]23C(=O)Nc2ccc(F)cc23)nnn1-c1c(Cl)cc(Cl)cc1Cl (stereo partly drawn) [4f]
[Q] Cc1c(C(=O)[C@H]2[C@H](c3cc4ccccc4o3)C3CCCN3[C@]23C(=O)Nc2cc(Cl)ccc23)nnn1-c1c(Cl)cc(Cl)cc1Cl (stereo partly drawn) [4a]
Returns: the label, P or Q , whose recorded IC50 is the lower number. Your answer should be the label of the entry you select.
Q
(Q: 74.6 nM, P: 116 nM)
